Target: human Claudin18.2 (human)
Test: cell-based or functional assay
measurement_kind: ADCC % Relative activity (%)
# value in %; strip the unit string

Worked examples, 4 binders total:
# binder, result_units, observed
measured = [
    ("chimeric 418D2F9 (antibody, human IgG1, kappa, V domains shown, chimeric, human IgG1/kappa constant regions) VH: DVQLVESGGGLVQPGGSRKLSCAASGFTFSSFGMHWVRQAPEKGLEWVAYINTGSSTIYYADTVKGRFTISRDNPKNTLFLQMTSLRSEDTAMYYCARIYYGNSFVYWGQGTLVTVSA VL: DIVMTQSPSSLTVTAGEKVTMSCKSSQSLLNSGNQKNYLTWYQQKPGQPPKLLIYWASTRESGVPDRFTGSGSGTDFTLTISSVQAEDLAVYYCQNDYSYPLTFGAGTKLELKR", "%", 25.7),
    ("chimeric 257B1G9 (antibody, human IgG1, kappa, V domains shown, chimeric, human IgG1/kappa constant regions) VH: QAYLQQSGAELVRSGASVKMSCKASGYTFTSHNMHWVKQTPGQGLEWIGYIYPGNGGTNYNQKFKGKATLTADTSSSTAYMQISSLTSEDSAVYFCTRDYYGNSFAYWGQGTLVTVSA VL: DIVMTQSPSSLTERAGERVSMSCKSSQSLFNSGNQKNYLTWYQQKPGQPPKLLIYWASTRESGVPDRFTGSGSGTDFTLTISSVQAEDLAVYYCQNDYRYPFTFGAGTKLELKR", "%", 68.2),
    ("chimeric 429H6C5 (antibody, human IgG1, kappa, V domains shown, chimeric, human IgG1/kappa constant regions) VH: DVQLVESGGGLVQPGGSRKLSCAASGFTFSSFGMHWVRQAPEKELEWVAYISSGSSTIYYAHTVKGRFTISRDNPKNTLFLRMTSLGSEDTAMYYCVRFYYGNSFVNWGQGTLVTVSA VL: DIVMTQSPSSLTATAGEKVTMSCKSSQSLLNSGNQKNYLTWYQQKPGQPPKMLIYWASTRESGVPDRFAGSGSGTDFTLTISSVQAEDLAVYYCQNAYIYPLTFGAGTRLELKR", "%", 144),
    ("chimeric 410H6H3 (antibody, human IgG1, kappa, V domains shown, chimeric, human IgG1/kappa constant regions; also called 410H6H3-Chimeric) VH: DVLLVESGGGLVQPGGSRKLSCAASGFTFSSSGMHWVRQAPEKGLEWVAYISSGSNTIYYADTLKGRFTISRDNPKNTLFLQMTSLRSEDTAMYYCARIYYGNSFVYWGQGTLVTVSA VL: DIVMTQSPSSLTVTAGEKVIMSCKSSQSLLNSGNQKNYLTWYQQKPGQPPKMLIYWASTRESGVPDRFRGSGSGTDFTLTISSVQAEDLAVYYCQNNYYYPLTFGTGTKLALKR", "%", 677),
]

Now look at this entry.
Input: If you can, please state the reported ADCC % Relative activity value of chimeric 419B5G9 (antibody, human IgG1, kappa, V domains shown, chimeric, human IgG1/kappa constant regions) VH: DVQLVESGGGLVQPGGSRKLSCAASGFTFSTFGMHWVRQAPEKGLEWVAYISGGSTTIFYADTVKGRFTISRDNPKNTLFLQMTSVRSEDTAMYYCARFYYGNSFAYWGPGTLVTVST VL: DIVMTQSPSSLTVTAGEKVTMSCKSSQSLLNSGNQKNYLTWYQQKPGQPPKMLIYWASTRESGVPDRFTGSGSGTDFTLTISSVQAEDLAVYYCQNAYSYPLTFGAGTKLELKR .
Output: 332
